system: LOX IMVI melanoma; experiment: NCI-60 one-dose screen, 48 h; conditions: 10 µM unless noted
The panel holds about 83,000 compounds, 20% with a hit somewhere; the sample as a whole holds those more often. The source made the active and inactive calls. The calls were made as follows: active = growth percent below 10; inactive = the rest.
Possible outcomes: active, inactive

compound: O=C(NC1CCCCCC1)c1ccc2c(=O)n3c(nc2c1)CCCCC3
class assignment: inactive

compound: CCCS(=O)(=O)Nc1cccc(Nc2ncnc3cc(NC(=O)CCl)ccc23)c1Cl
class assignment: active

compound: O=C(Nc1cccc2c1C(=O)c1cccc(NC(=O)c3ccc(C(=O)Nc4cccc5c4C(=O)c4cccc(NC(=O)c6ccccc6)c4C5=O)cc3)c1C2=O)c1ccccc1
class assignment: inactive

compound: COc1ccc(C(=O)/C=C/c2ccc(Cl)cc2)cc1S(N)(=O)=O
class assignment: inactive

compound: C=C(CNCCc1ccc(O)cc1)[C@@H]1CC[C@]2(CO)CC[C@]3(C)[C@H](CC[C@@H]4[C@@]5(C)CCC(N)C(C)(C)[C@@H]5CC[C@]43C)[C@@H]12 (some centres undefined)
class assignment: active

compound: O=c1c(Cc2ccc(F)cc2)cc(-c2ccccc2)nn1C/C(=N/O)c1ccccc1
class assignment: inactive

compound: COc1c(O[C@@H]2OC(CO)[C@H](O)[C@H](O)C2O)cc2oc3cc(O)c(CC=C(C)C)c(O)c3c(=O)c2c1CC=C(C)C (some centres undefined)
class assignment: inactive

compound: O=C1c2cccnc2C(=O)c2c1c(C(=O)OCCCN1CCOCC1)c1ccccn21
class assignment: active

compound: Nc1ccc(Cl)c2c(=O)c3ccccc3[nH]c12
class assignment: inactive

compound: COc1ccc(C(=O)/C=C/c2ccc(C)cc2)cc1S(N)(=O)=O
class assignment: inactive

compound: COc1ccc(-c2cn(Cc3ccc4c(Br)cc(Br)c(O)c4n3)nn2)cc1
class assignment: inactive

compound: CCC(C)C(N)C(=O)NC(CC(C)C)C(=O)N1CCCC1C(=O)NC(Cc1c[nH]c2ccccc12)C(=O)NC(CCCCN)C(=O)NC(Cc1c[nH]c2ccccc12)C(=O)N1CCCC1C(=O)NC(Cc1c[nH]c2ccccc12)C(=O)NC(Cc1c[nH]c2ccccc12)C(=O)N1CCCC1C(=O)NC(Cc1c[nH]c2ccccc12)C(=O)NC(CCCNC(=N)N)C(=O)NC(CCCNC(=N)N)C(N)=O (centres undefined)
class assignment: inactive

compound: C=CCOC(=O)C1=C(C)N(CC)C(=O)N(CC)C1c1c(Cl)n(C)c2ccccc12 (centres undefined)
class assignment: inactive

compound: C=C1C(=O)O[C@H]2[C@H]1CC/C(COC(=O)NCc1ccc(Cn3c(=O)sn(CCCC)c3=O)cc1)=C\CC[C@@]1(C)O[C@@H]21
class assignment: inactive

compound: Cn1cc(-c2nc(-c3c[nH]c4ccncc34)cs2)c2cc(F)ccc21
class assignment: active

compound: CCCCCCC/C=N/NC(=O)c1ccc(-n2cc(-c3ccccc3)nn2)cc1
class assignment: inactive

compound: O=C1NC(=O)C(=Cc2cc(-c3ccc(Cl)cc3)n(-c3ccccc3)n2)C(=O)N1
class assignment: inactive

compound: CC(=O)O[C@H]1C[C@@]2(C)[C@@H](C[C@@H](O)[C@H]3[C@@]4(C)CC[C@H](N5CCCC5)[C@@H](C)[C@@H]4CC[C@@]32C)/C1=C(\CCC=C(C)C)C(=O)O
class assignment: inactive

compound: Nc1nc(N)c2c(n1)NC(c1cccc(Nc3ccnc4cc(C(F)(F)F)ccc34)c1)CC(c1ccc(Cl)cc1)=N2 (centres undefined)
class assignment: inactive

compound: Nc1nc(N)c2c(n1)NC(c1ccc3c(c1)OCO3)CC(c1cccc(Nc3ccncc3)c1)=N2 (centres undefined)
class assignment: inactive

compound: O=C(O)CCCN1C(=O)CSC1=S
class assignment: inactive

compound: CO[C@H]1/C=C/O[C@@]2(C)Oc3c(C)c(O)c4c(O)c(c5c(nc6cc(C)ccn65)c4c3C2=O)NC(=O)/C(C)=C\C=C\[C@H](C)[C@H](O)[C@@H](C)C(O)[C@@H](C)[C@H](OC(C)=O)[C@@H]1C (some centres undefined)
class assignment: inactive

compound: O=C1c2ccccc2C(=O)c2cc(Cn3c[n+](Cc4ccc5ccccc5c4)c4ccccc43)ccc21
class assignment: inactive

compound: COc1ccc(S(=O)(=O)Oc2ccc(-c3sc4cc(OS(=O)(=O)c5ccc(OC)cc5)ccc4c3C(=O)c3ccc(OCCN4CCCCC4)cc3)cc2)cc1
class assignment: inactive

compound: Cc1nc2c(c(-c3ccccc3)n1)Cc1c(ccc3ccccc13)O2
class assignment: inactive

compound: CN1CC(c2ccccc2)C(C(=O)c2ccc(Br)cc2)C12C(=O)Nc1ccccc12 (centres undefined)
class assignment: inactive

compound: Cc1nc2cccc(NCc3ccc(C(=O)NO)cc3)c2c(=O)n1-c1ccccc1
class assignment: inactive

compound: O=c1cc(-c2nccc3c2[nH]c2ccccc23)c2cc(Cl)ccc2o1
class assignment: inactive

compound: CCCCC#Cc1c(I)n(C2OC(CO[Si](C)(C)C(C)(C)C)C3OC(C)(C)OC32)c(=O)[nH]c1=O (centres undefined)
class assignment: inactive
